These data points were gathered from the supplement of paper PMC10065799.

target of assay: c-Src SH2
protocol text: SH2 binding enrichment of the phosphorylated peptide, bacterial display (enrichment ratio); higher = better substrate or ligand; peptides without Tyr show the background
quantity kind: SH2 binding enrichment

Please review the following examples before continuing.
[[record]]
input_sequence = "DVLPEYKLQAP [KCNH2_Y388]"
recorded_result = 0.508

[[record]]
input_sequence = "ISGGGYRARPA [FGB_Y71]"
recorded_result = 0.392

[[record]]
input_sequence = "GPTLSYGRDGR [MATR3_Y158]"
recorded_result = 0.532

[[record]]
input_sequence = "RSSKMYFKTRS [LPL_Y329_L330F]"
recorded_result = 0.459


Could you report SH2 binding enrichment for every entry in the following list?
1. RSACTYLAPHL [PLK3_Y615_S618P]
2. IGGHAYGDQYR [IDH1_Y135_R132G]
3. MEYAKYGSLRG [RET_Y809_V804M]
4. NESVDYRATFP [MET_Y1003]

1: 0.562; 2: 0.416; 3: 0.484; 4: 0.433

Could you report SH2 binding enrichment for every entry in the following list?
1. YSQNICIQNRN [PKP2_Y631_Y631C]
2. YVSSFYHAFSG [ACTN4_Y265]
3. RRIHSNRGHLW [VHL_Y112_Y112N]

1. 0.56
2. 2.2
3. 0.484

###

Test system: c-Abl (mouse)
protocol text: phosphorylation enrichment, bacterial display (enrichment ratio); higher = better substrate or ligand; peptides without Tyr show the background
quantity kind: phosphorylation enrichment
One number for each entry.

[[record]]
input_sequence = "IFGVSYDEYRY [CFTR_Y512]"
quantity_kind = "phosphorylation enrichment"
recorded_result = 0.638

[[record]]
input_sequence = "HCFNSYTFPRL [PAK7_Y316_S312C_YF]"
quantity_kind = "phosphorylation enrichment"
recorded_result = 0.795

[[record]]
input_sequence = "AFLQTYAHEVS [PCDHGA5_Y753_S754A]"
quantity_kind = "phosphorylation enrichment"
recorded_result = 0.693

[[record]]
input_sequence = "FNDSAYNQQLI [ZPLD1_Y198_T197A_YF]"
quantity_kind = "phosphorylation enrichment"
recorded_result = 0.485

[[record]]
input_sequence = "DLAAQYTTVGR [SGSH_Y240]"
quantity_kind = "phosphorylation enrichment"
recorded_result = 0.542

[[record]]
input_sequence = "TFFQMYDKGLV [IARS2_Y231_YF]"
quantity_kind = "phosphorylation enrichment"
recorded_result = 0.734


// next entry
Which phosphorylation enrichment is reported for this sequence? KGIQLYDTPFE [SHB_Y297_YF]
0.965

###

target of assay: SHP2-C SH2
protocol text: SH2 binding enrichment of the phosphorylated peptide, bacterial display (enrichment ratio); higher = better substrate or ligand; peptides without Tyr show the background
quantity kind: SH2 binding enrichment
Give bare numbers.

[[record]]
input_sequence = "KDKLPYLFDDP [GPX2_Y125_P126L_YF]"
target_of_assay = "SHP2-C SH2"
quantity_kind = "SH2 binding enrichment"
recorded_result = 0.773

[[record]]
input_sequence = "EHVMPYAANKN [GRIN2A_Y1431]"
target_of_assay = "SHP2-C SH2"
quantity_kind = "SH2 binding enrichment"
recorded_result = 0.747

[[record]]
input_sequence = "VCDSNYSASRW [LRP5_Y1552_D1551N]"
target_of_assay = "SHP2-C SH2"
quantity_kind = "SH2 binding enrichment"
recorded_result = 0.7

[[record]]
input_sequence = "GKGGSYSQAAC [HLA-B_Y344]"
target_of_assay = "SHP2-C SH2"
quantity_kind = "SH2 binding enrichment"
recorded_result = 0.881

[[record]]
input_sequence = "GKAFIYASHIV [ZNF573_Y229]"
target_of_assay = "SHP2-C SH2"
quantity_kind = "SH2 binding enrichment"
recorded_result = 0.697

[[record]]
input_sequence = "LEITWYPFDVE [RIPOR2_Y316]"
target_of_assay = "SHP2-C SH2"
quantity_kind = "SH2 binding enrichment"
recorded_result = 0.884


Which SH2 binding enrichment is reported for this sequence? EHLNRYISDTF [TTLL10_Y446]
0.652

###

Tested on: Fer (mouse)
protocol text: phosphorylation enrichment, bacterial display (enrichment ratio); higher = better substrate or ligand; peptides without Tyr show the background
Please respond with reported phosphorylation enrichment for every item in the list.
Numbers only.

[[record]]
input_sequence = "QQLQGYIPSNF [FRK_Y99_YF]"
recorded_result = 0.679

[[record]]
input_sequence = "YLENYYDLKKD [MMP3_Y42]"
recorded_result = 0.759

[[record]]
input_sequence = "ASMAKYYASEI [ACADSB_Y372]"
recorded_result = 0.38

[[record]]
input_sequence = "PSVVAYPKRSQ [MARK3_Y432]"
recorded_result = 0.531

[[record]]
input_sequence = "LADMNYVHCDL [EPHB2_Y742_R745C]"
recorded_result = 0.535


Could you report phosphorylation enrichment for every entry in the following list?
1. SSSPTYLDLPF [GLI3_Y168_P169L]
2. MSYDRYMAICH [OR2A5_Y123]

[0.621, 0.498]

###

Tested on: c-Abl (mouse)
protocol text: phosphorylation enrichment, bacterial display (enrichment ratio); higher = better substrate or ligand; peptides without Tyr show the background
Short version: phosphorylation enrichment at least 0.8 is Satisfied, less is Not satisfied.

Use these answered entries as a reference point.
[[record]]
input_sequence = "QRPYVYYYSYL [PTEN_Y176_R173P]"
answer_label = "Satisfied"

[[record]]
input_sequence = "IQVDAYFSPIH [ADSL_Y432]"
answer_label = "Satisfied"

[[record]]
input_sequence = "RHNEIYEIKVD [LGR5_Y387]"
answer_label = "Not satisfied"

[[record]]
input_sequence = "GYSRHCEDGYP [CTNND1_Y217_Y217C]"
answer_label = "Satisfied"


Can QGIPWYHSQSP [FOXF1_Y331_R330W] be said to have phosphorylation enrichment at or above 0.8?
Not satisfied

Can TRNRDYDDIDD [TTYH2_Y424] be said to have phosphorylation enrichment at or above 0.8?
Not satisfied

Can LERYIYNREEY [HLA-DPB1_Y59_F64Y] be said to have phosphorylation enrichment at or above 0.8?
Not satisfied

Can FSKRIYKGMVA [PCDH15_Y931] be said to have phosphorylation enrichment at or above 0.8?
Not satisfied

Can AVAFVYYKSIG [ADGRL4_Y301] be said to have phosphorylation enrichment at or above 0.8?
Not satisfied

Can DALDNYVIRGV [PCCA_Y473] be said to have phosphorylation enrichment at or above 0.8?
Not satisfied

Can PVGVLYKVKVF [PTS_Y128_YF] be said to have phosphorylation enrichment at or above 0.8?
Satisfied

Can YISLIYTNYEV [GSTP1_Y109_A114V] be said to have phosphorylation enrichment at or above 0.8?
Satisfied

Can RFMVGYEMLAQ [GALT_Y339_K334R] be said to have phosphorylation enrichment at or above 0.8?
Satisfied

###

Tested on: c-Src
protocol text: phosphorylation enrichment, bacterial display (enrichment ratio); higher = better substrate or ligand; peptides without Tyr show the background
Short version: phosphorylation enrichment at least 0.7 is Satisfied, less is Not satisfied.

[[record]]
input_sequence = "YLEKYYKFGSR [NNMT_Y25]"
answer_label = "Not satisfied"

[[record]]
input_sequence = "DLDATYRPMYS [JUP_Y701_M697L]"
answer_label = "Not satisfied"

[[record]]
input_sequence = "VVQGIYGFHHF [UFSP2_Y285_YF]"
answer_label = "Satisfied"

[[record]]
input_sequence = "PYRFIYMAVQH [PTPN11_Y515_Q510P]"
answer_label = "Satisfied"

[[record]]
input_sequence = "CTTIHYNFTCN [TP53_Y234_M237T_YF]"
answer_label = "Not satisfied"

[[record]]
input_sequence = "ADARMCGVLPW [PLP1_Y207_Y207C]"
answer_label = "Not satisfied"


Can YIATQYSLRPR [LBR_Y166] be said to have phosphorylation enrichment at or above 0.7?
Not satisfied

###

Tested on: c-Src
protocol text: phosphorylation enrichment, bacterial display (enrichment ratio); higher = better substrate or ligand; peptides without Tyr show the background
quantity kind: phosphorylation enrichment
Answers are plain numbers.

[[record]]
input_sequence = "RSAGKYDVFLI [MECP2_Y120_YF]"
recorded_result = 0.533

[[record]]
input_sequence = "AGTILYHAHLD [ASS1_Y291]"
recorded_result = 0.451

[[record]]
input_sequence = "MGHVNYGAFIN [GLB1_Y485_R482H_YF]"
recorded_result = 0.706


Could you report phosphorylation enrichment for every entry in the following list?
1. CTLLPYFSARV [DGKE_Y269_YF]
2. TGDFGYRTPGY [TNS2_Y668_A670T]
3. VSGIPYGQPKQ [NEU1_Y251]

1: 0.43; 2: 0.432; 3: 0.434

Could you report phosphorylation enrichment for every entry in the following list?
1. ICTVDYLLRLQ [RYR1_Y3921]
2. VIKDKYPKARF [APTX_Y209_YF]
3. FSCLPCGRLAF [SLC52A2_Y305_Y305C_YF]

[0.444, 0.408, 0.33]

Could you report phosphorylation enrichment for every entry in the following list?
1. SFTDPYAQPPL [KMT2D_Y2378_YF]
2. ASMAKYYASEI [ACADSB_Y372]
3. LSFSEYASVQV [SIRPA_Y496_P491L]
4. QDDTVYMGKVI [DCTN1_Y1244_T1249I]
5. DFDNLYFWDQD [ERBB2_Y1221_A1216D_YF]

1: 0.54; 2: 0.595; 3: 2.14; 4: 0.942; 5: 5.27
